Molecular target: T1, xPSM (extracellular portion of human PSMA, Tag-xPSM digested with enterokinase, no affinity tags) (human, UniProt Q04609 44-750)
T1 construct: extracellular domain; also called purified xPSM; soluble xPSM protein
T1 sequence (Q04609 44-750): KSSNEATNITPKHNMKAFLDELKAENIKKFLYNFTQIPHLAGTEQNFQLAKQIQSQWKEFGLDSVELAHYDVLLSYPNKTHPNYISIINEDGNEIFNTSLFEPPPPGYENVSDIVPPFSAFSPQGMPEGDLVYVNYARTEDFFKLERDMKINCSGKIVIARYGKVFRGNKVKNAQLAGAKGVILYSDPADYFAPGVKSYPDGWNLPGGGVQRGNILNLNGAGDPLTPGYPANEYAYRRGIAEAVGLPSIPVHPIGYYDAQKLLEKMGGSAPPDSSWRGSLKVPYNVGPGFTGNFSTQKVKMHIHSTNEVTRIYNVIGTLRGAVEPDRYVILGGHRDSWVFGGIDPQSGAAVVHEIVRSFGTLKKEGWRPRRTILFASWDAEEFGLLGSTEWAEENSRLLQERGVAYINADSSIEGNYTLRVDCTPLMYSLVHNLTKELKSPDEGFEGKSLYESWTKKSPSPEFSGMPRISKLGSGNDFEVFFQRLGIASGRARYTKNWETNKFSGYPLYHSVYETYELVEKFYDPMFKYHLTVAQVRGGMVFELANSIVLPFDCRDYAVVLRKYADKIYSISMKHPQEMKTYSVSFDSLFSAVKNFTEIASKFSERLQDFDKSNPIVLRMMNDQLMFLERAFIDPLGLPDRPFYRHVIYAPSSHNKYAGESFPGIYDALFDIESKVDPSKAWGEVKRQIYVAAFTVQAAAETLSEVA
Experiment: phage ELISA on xPSM
Ends that are not written are not given here.

[
  {
    "binder": "CTITSKRTC (not fully specified (bridges); cysteine pairing not given here; also: displayed on M13 phage pIII coat protein, Disulfide-constrained heptapeptide flanked by cysteines, tested as whole phage; not shown: pIII coat protein of M13 filamentous bacteriophage (New England Biolabs CX7C library); junction between peptide and pIII) [R5-C6 phage (M13 phage displaying CTITSKRTC)]",
    "binding result": "binds"
  },
  {
    "binder": "CPSVNTKQC (not fully specified (bridges); cysteine pairing not given here; also: displayed on M13 phage pIII coat protein, Tested as whole phage; also called R5-C11; not shown: pIII coat protein of M13 filamentous bacteriophage (New England Biolabs CX7C library); junction between peptide and pIII) [SEQ ID NO 9 phage (M13 phage displaying CPSVNTKQC)]",
    "binding result": "binds"
  },
  {
    "binder": "CQVRHSAQC (not fully specified (bridges); cysteine pairing not given here; also: displayed on M13 phage pIII coat protein, Tested as whole phage; not shown: pIII coat protein of M13 filamentous bacteriophage (New England Biolabs CX7C library); junction between peptide and pIII) [SEQ ID NO 106 phage (M13 phage displaying CQVRHSAQC)]",
    "binding result": "binds"
  }
]
